Values from patent US9533977B2

Target Desc: CETP (Homo sapiens, UniProt P11597)
Sequence (P11597 18-493): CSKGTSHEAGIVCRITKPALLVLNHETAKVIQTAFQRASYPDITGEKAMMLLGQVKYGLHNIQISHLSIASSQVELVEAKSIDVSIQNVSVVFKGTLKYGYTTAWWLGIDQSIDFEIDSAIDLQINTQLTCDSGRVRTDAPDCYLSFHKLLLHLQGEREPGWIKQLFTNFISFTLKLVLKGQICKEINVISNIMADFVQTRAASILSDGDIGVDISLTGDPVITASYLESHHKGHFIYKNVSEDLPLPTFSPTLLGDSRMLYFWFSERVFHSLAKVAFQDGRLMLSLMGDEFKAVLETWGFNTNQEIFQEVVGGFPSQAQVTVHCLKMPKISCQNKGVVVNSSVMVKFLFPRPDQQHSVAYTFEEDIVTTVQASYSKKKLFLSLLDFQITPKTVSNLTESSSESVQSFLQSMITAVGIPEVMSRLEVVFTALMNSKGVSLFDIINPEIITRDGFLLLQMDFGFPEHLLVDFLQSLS
Experiment Notes: Inhibitory activity against CETP in human plasma (Roar CETP activity kit, fluorescence)
Condition Info: plasma from healthy men diluted 1:10 in assay buffer, 37° C., 3 hrs, fluorescence 465/535 nm; read-out: IC50, Inhibition of CETP Activity in Human Plasma
Recorded Metric: IC50 (nM)

See these solved cases before continuing.
CCC(=O)N1CCC(N(CC)c2ncc(C(F)(F)F)cc2CN2C(=O)O[C@H](c3cc(C(F)(F)F)cc(C(F)(F)F)c3)[C@@H]2C)CC1 | 62
CCOC(=O)N1CCC(N(CC)c2ncc(C(F)(F)F)cc2CN2C(=O)O[C@H](c3cc(C(F)(F)F)cc(C(F)(F)F)c3)[C@@H]2C)CC1 | 220
C[C@H]1C(c2cc(C(F)(F)F)cc(C(F)(F)F)c2)OC(=O)N1Cc1nc(C2CCCC2)cnc1N(C)C[C@H]1CC[C@H](CC(=O)O)CC1 (stereo partly drawn) | 34
CCN(c1ncc(-c2cc(C)cs2)cc1CN1C(=O)O[C@H](c2cc(C(F)(F)F)cc(C(F)(F)F)c2)[C@@H]1C)C1CCCCC1 | 18.9

P = CCN(c1ncc(-c2ccsc2C#N)cc1CN1C(=O)O[C@@H](c2cc(C(F)(F)F)cc(C(F)(F)F)c2)[C@@H]1C)C1CCCCC1
Q = CCN(c1ncc(C(F)(F)F)cc1CN1C(=O)O[C@H](c2cc(C(F)(F)F)cc(C(F)(F)F)c2)[C@@H]1C)C1CCC2(CC1)OCCO2
Given the listed items, does P or Q have the lesser reported IC50? Could you answer with the label of the item you picked?
Q
(Q: 114 nM, P: 246 nM)

====

Experiment Notes: Drug concentration in blood and tissues of hamsters administered with multiple doses
Assay type: in vivo, Golden Syrian Hamsters
Condition Info: male, Golden Syrian, hamster, adipose tissue, oral 10 mg/kg every day for two weeks, two hours after the final administration, read-out: Drug Concentration Adipose Tissue
Recorded Metric: concentration at 2 h (ng/g)

CCN(c1ncc(-c2c(C)noc2C)nc1CN1C(=O)O[C@H](c2cc(C(F)(F)F)cc(C(F)(F)F)c2)[C@@H]1C)C1CCCCC1 | 7900
CCN(c1ncc(-c2c(C)noc2C)cc1CN1C(=O)O[C@H](c2cc(C(F)(F)F)cc(C(F)(F)F)c2)[C@@H]1C)C1CCCCC1 | 10200
